Target: UniProt:P00734
readout type: pIC50
Numbers only, as −log10 of the molar value.

What does the record list as pIC50 for `CN1C(=O)c2ccc(OC(=O)CCc3ccc(N)nc3)cc2C1=O.Cl` ?
5.28

* * *

Target: UniProt P00734
Assay: Inhibition of thrombin (unknown origin) using t-Boc-Val-Pro-Arg-MCA as substrate at 10 uM after 5 mins by fluorimetric analysis
The source made the active and inactive calls. No cut-off for these calls is given here.
readout type: inhibition

For orientation, consider the following solved cases.
[[record]]
compound = "CCOP(=O)(CCc1ccc(N)nc1)Oc1ccc2c(c1)C(=O)N(C)C2=O (stereo not given)"
result = "95%"

[[record]]
compound = "CCOP(=O)(Cc1ccc(N)nc1)Oc1ccc2c(c1)C(=O)N(C)C2=O (stereo not given)"
result = "59%"

[[record]]
compound = "CC(C)N1C(=O)c2ccc(NC(CCc3ccc(N)nc3)P(=O)(Oc3ccccc3)Oc3ccccc3)cc2C1=O (stereo not given)"
result = "inactive"

[[record]]
compound = "CN1C(=O)c2ccc(NC(CCc3ccc(N)nc3)P(=O)(Oc3ccccc3)Oc3ccccc3)cc2C1=O (stereo not given)"
result = "inactive"


Now, please, on to the next compound.
What does the record list as inhibition for `CN1C(=O)c2ccc(OC(=O)CCc3ccc(N)nc3)cc2C1=O.Cl` ?
70%

* * *

Target: Trypsin (Homo sapiens, UniProt P07477+P07478+P35030)
Assay: Inhibition of trypsin (unknown origin) using Bz-Arg-pNA.HCl as substrate at 10 uM after 5 mins by colorimetric analysis
Assay type: protein assay
Active and inactive are the calls of the source. The rule behind the calls is not given here.
readout type: inhibition

For orientation, consider the following solved cases.
[[record]]
compound = "CCOP(=O)(Cc1ccc(N)nc1)Oc1ccc2c(c1)C(=O)N(C)C2=O (stereo not given)"
readout_type = "inhibition"
result = "inactive"

[[record]]
compound = "CN1C(=O)c2ccc(NC(CCc3ccc(N)nc3)P(=O)(Oc3ccccc3)Oc3ccccc3)cc2C1=O (stereo not given)"
readout_type = "inhibition"
result = "inactive"

[[record]]
compound = "CC(C)N1C(=O)c2ccc(NC(CCc3ccc(N)nc3)P(=O)(Oc3ccccc3)Oc3ccccc3)cc2C1=O (stereo not given)"
readout_type = "inhibition"
result = "inactive"

[[record]]
compound = "CN1C(=O)c2ccc(OC(=O)CCc3ccc(N)nc3)cc2C1=O.Cl"
readout_type = "inhibition"
result = "97%"


Now, please, on to the next compound.
API: value(readout= inhibition, system= Trypsin (Homo sapiens, UniProt P07477+P07478+P35030), query= CCOP(=O)(CCc1ccc(N)nc1)Oc1ccc2c(c1)C(=O)N(C)C2=O (stereo not given) )
inactive

* * *

Molecular target: Tryptase (Homo sapiens, UniProt Q9BZJ3+Q15661+Q9NRR2)
Experiment: Inhibition of tryptase (unknown origin) using t-Boc-Phe-Ser-Arg-MCA as substrate at 10 uM after 5 mins by fluorimetric analysis
Type: protein assay
Calls of active or inactive are those of the source. The calls are words filed in the database; no cut-off is given here.
readout type: inhibition

For orientation, consider the following solved cases.
[[record]]
molecule = "CN1C(=O)c2ccc(OC(=O)CCc3ccc(N)nc3)cc2C1=O.Cl"
readout_type = "inhibition"
result = "98%"

[[record]]
molecule = "CN1C(=O)c2ccc(NC(CCc3ccc(N)nc3)P(=O)(Oc3ccccc3)Oc3ccccc3)cc2C1=O (stereo not given)"
readout_type = "inhibition"
result = "inactive"

[[record]]
molecule = "CCOP(=O)(Cc1ccc(N)nc1)Oc1ccc2c(c1)C(=O)N(C)C2=O (stereo not given)"
readout_type = "inhibition"
result = "5.3%"

[[record]]
molecule = "CC(C)N1C(=O)c2ccc(NC(CCc3ccc(N)nc3)P(=O)(Oc3ccccc3)Oc3ccccc3)cc2C1=O (stereo not given)"
readout_type = "inhibition"
result = "inactive"


Now, please, on to the next molecule.
What does the record list as inhibition for CCOP(=O)(CCc1ccc(N)nc1)Oc1ccc2c(c1)C(=O)N(C)C2=O (stereo not given) ?
11%

Data origin: ChEMBL document CHEMBL3603840
